system-under-test: T1, recombinant human TIGIT (Sino Biological) (human, UniProt Q495A1 22-138)
T1 construct: Bought protein; NP_776160.2; also called human TIGIT antigen; hTIGIT
T1 sequence: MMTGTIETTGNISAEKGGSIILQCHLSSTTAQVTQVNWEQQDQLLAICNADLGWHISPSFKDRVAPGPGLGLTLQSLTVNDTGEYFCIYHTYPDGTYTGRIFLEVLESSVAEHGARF
test-protocol: SPR (Biacore T200), single cycle kinetics, IgG from supernatant captured on anti-human chip, TIGIT as analyte, 1:1 fit;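 also: measured at 25 °C in HBS-P+ with 1% BSA, four ascending TIGIT concentrations, 210 s association per step, one final 900 s dissociation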

[
  {
    "binder": "7A6 VH0/Vκ0 chimeric antibody (human IgG1, kappa) (antibody, V domains shown, Mouse 7A6 variable regions on human IgG1/kappa constant regions; also called VH0/Vk0; 7A6 VH0Vk0) VH: DVQLQESGPGLVKPSQSLSLTCTVTGYSITSDYAWNWIRQFPGNKLEWMGYISYSGSARYNPSLKSRISITRDTSMNQFFLQLNSVTAEDTATYYCARKGYPAYFAYWGQGTLVTVSS VL: DIVMTQSHKFMSTSVGDRVSISCKASQDVSTAVAWYQQKPGQSPELLIYSASYRYTGVPDRFTGSGSGTDFTFTISSVQAEDLAVYYCQHHYSTPYTFGGGTKLEMKR",
    "koff (s⁻¹)": 0.0016
  },
  {
    "binder": "7A6 VH3/Vκ3 humanized antibody (human IgG1, kappa) (antibody, V domains shown, Tested as IgG in supernatant of transiently transfected HEK293 EBNA cells) VH: QVQLQESGPGLVKPSQTLSLTCTVTGYSITSDYAWNWIRQPPGKGLEWMGYISYSGSARYNPSLKSRVTISRDTSKNQFSLKLSSVTAEDTATYYCARKGYPAYFAYWGQGTLVTVSS VL: DIQMTQSPSSLSASVGDRVSITCKASQDVSTAVAWYQQKPGQAPRLLIYSASYRYTGVPDRFSGSGSGTDFTLTISSLQAEDVAVYYCQHHYSTPYTFGQGTKLEIKR",
    "koff (s⁻¹)": 0.0015
  }
]
